Tested on: Escherichia coli IAI1
Assay: growth (OD595) fold change vs plate DMSO controls (fold change (ratio)); higher = more growth
Settings: incubation time: 27 h, anaerobic, 37 °C
Structures can show the parent of a compound that is named as a salt.
Reported growth is given for each of the following compounds.

Before answering, review these 3 worked examples.
Compound	growth
CCOCC(O)COc1ccc(NC(=O)CC[S+](C)C)cc1 (centres undefined) [Suplatast Tosylate] (20 µM)	1.04
O=[N+]([O-])c1ccc2c(c1)Cc1ccccc1-2 [2-Nitrofluorene] (20 µM)	0.978
c1ccc2c(c1)Cc1ccccc1-2 [Fluorene] (20 µM)	1.04

Next compound, growth to be filled in.
Fill blank: measured growth of the compound C[C@]12CCC(=O)C=C1CC[C@@H]1[C@@H]2C(=O)C[C@@]2(C)[C@H]1CC[C@]2(O)C(=O)CO [Cortisone] (20 µM) is ____. 0.978
